FYI, the data here is from the supplement of paper PMC5579334.

- Test system: HSC2
- experimental details: relative IC50 (inflection point of fitted dose-response curve, CellTiter-Glo viability, 72 h; top asymptote may be below 50% inhibition); higher = less potent
Listed here are molecules together with their documented relative IC50.
property name: relative IC50

compound_structure=CN(C)c1nc(N(C)C)nc(N(C)C)n1 meas_value="> 10 µM"
compound_structure=CNC(=O)c1ccc(N2C(=S)N(c3cnc(C#N)c(C(F)(F)F)c3)C(=O)C23CCC3)cc1F meas_value="> 10 µM"
compound_structure=CC(=O)O[C@]1(C(C)=O)CC[C@H]2[C@@H]3C=C(C)C4=CC(=O)CC[C@]4(C)[C@H]3CC[C@@]21C meas_value="> 10 µM"

====

- Tested on: STS26T
- experimental details: relative IC50 (inflection point of fitted dose-response curve, CellTiter-Glo viability, 72 h; top asymptote may be below 50% inhibition); higher = less potent
Listed here are molecules together with their documented relative IC50.
property name: relative IC50

molecule="CC(C)Cn1cnc2c(N)nc3ccccc3c21 [Imiquimod]" meas_value="> 2.5 µM"
molecule="OC[C@H]1O[C@@H](n2cnc3c2N=CNC[C@H]3O)C[C@@H]1O [Pentostatin]" meas_value="> 10 µM"
molecule="CNC(=O)c1cc(Oc2ccc(NC(=O)Nc3cc(C(C)(C)C)nn3-c3ccc4ncccc4c3)c(F)c2)ccn1 [Rebastinib]" meas_value="> 1 µM"
molecule="Cc1ccc(Nc2nccc(N(C)c3ccc4c(C)n(C)nc4c3)n2)cc1S(N)(=O)=O [Pazopanib]" meas_value="> 10 µM"
molecule="Oc1ncnc2[nH]ncc12 [Allopurinol]" meas_value="> 10 µM"
molecule="COc1cc2c(Oc3ccc4[nH]c(C)cc4c3F)ncnc2cc1OCCCN1CCCC1 [Cediranib]" meas_value="> 1 µM"
molecule="CN(C)C(=N)NC(=N)N [Metformin aq]" meas_value="> 100 µM"

====

- Tested on: ST8814
- experimental details: relative IC50 (inflection point of fitted dose-response curve, CellTox-Green cytotoxicity, 72 h; top asymptote may be below 50%); higher = less potent
property name: relative IC50 (nM)

compound="COc1cc2c(Oc3ccc(NC(=O)C4(C(=O)Nc5ccc(F)cc5)CC4)cc3F)ccnc2cc1OCCCN1CCOCC1 [Foretinib]" value_unit=nM reported_relation== meas_value=288
compound="CNC(=O)c1cc(Oc2ccc(NC(=O)Nc3ccc(Cl)c(C(F)(F)F)c3)cc2)ccn1 [Sorafenib]" value_unit=nM reported_relation=> meas_value=1000
compound="O=C1NC(=O)[C@@H](c2cn3c4c(cccc24)CCC3)[C@@H]1c1c[nH]c2ccccc12 [Tivantinib]" value_unit=nM reported_relation== meas_value=328

====

- Tested on: STS26T
- experimental details: drug sensitivity score (DSS, CellTiter-Glo viability, 72 h) (DSS (dimensionless)); higher = more sensitive; extreme values may be limits of the assay
property name: drug sensitivity score

molecule="CN(C)CCN1C(=O)c2cccc3cc(N)cc(c23)C1=O [Amonafide] (max concentration tested 10000 nM)" meas_value=5.83
molecule="Cn1c(=O)n(-c2ccc(C(C)(C)C#N)cc2)c2c3cc(-c4cnc5ccccc5c4)ccc3ncc21 [Dactolisib] (max concentration tested 1000 nM)" meas_value=17.2
molecule="C=CCN(/C=C1/C(=O)O[C@H](COC)[C@@]2(C)C1=C(O)C(=O)C1=C2[C@H](OC(C)=O)C[C@]2(C)C(=O)CC[C@@H]12)CC=C [Sonolisib] (max concentration tested 10000 nM)" meas_value=0.263
molecule="CC(=O)N(O)CCCCCNC(=O)CCC(=O)N(O)CCCCCNC(=O)CCC(=O)N(O)CCCCCN [Deferoxamine aq] (max concentration tested 10000 nM)" meas_value=5.09
molecule="CO[C@@H](C(=O)N1Cc2[nH]nc(NC(=O)c3ccc(N4CCN(C)CC4)cc3)c2C1)c1ccccc1 [Danusertib] (max concentration tested 10000 nM)" meas_value=5.54
molecule="C[C@@H]1CCN(C(=O)CC#N)C[C@@H]1N(C)c1ncnc2[nH]ccc12 [Tofacitinib] (max concentration tested 5000 nM)" meas_value=0.0007
molecule="Cn1cc(C2=C(c3cn(C4CCN(Cc5ccccn5)CC4)c4ccccc34)C(=O)NC2=O)c2ccccc21 [Enzastaurin] (max concentration tested 10000 nM)" meas_value=1.09
molecule="O=C(Nc1ccncc1)C(=O)c1cn(Cc2ccc(Cl)cc2)c2ccccc12 [Indibulin] (max concentration tested 10000 nM)" meas_value=20.1
molecule="C=CC(=O)N1CCC[C@@H](n2nc(-c3ccc(Oc4ccccc4)cc3)c3c(N)ncnc32)C1 [Ibrutinib] (max concentration tested 1000 nM)" meas_value=0
molecule="CO[C@H]1[C@@H](N(C)C(=O)c2ccccc2)C[C@@H]2O[C@@]1(C)n1c3ccccc3c3c4c(c5c6ccccc6n2c5c31)C(=O)NC4 [Midostaurin] (max concentration tested 10000 nM)" meas_value=11.5
molecule="CO[C@H]1C[C@@H]2CC[C@@H](C)[C@@](O)(O2)C(=O)C(=O)N2CCCC[C@H]2C(=O)O[C@H]([C@H](C)C[C@@H]2CC[C@@H](OCCO)[C@H](OC)C2)CC(=O)[C@H](C)/C=C(\\C)[C@@H](O)[C@@H](OC)C(=O)[C@H](C)C[C@H](C)/C=C/C=C/C=C/1C [Everolimus] (max concentration tested 100 nM)" meas_value=15.6
molecule="COc1ncc(-c2ccc3nccc(-c4ccnnc4)c3c2)cc1NS(=O)(=O)c1ccc(F)cc1F (max concentration tested 1000 nM)" meas_value=16.6
molecule="Cc1cn(-c2cc(NC(=O)c3ccc(C)c(Nc4nccc(-c5cccnc5)n4)c3)cc(C(F)(F)F)c2)cn1 [Nilotinib] (max concentration tested 10000 nM)" meas_value=0
molecule="CCCCC/C=C/C=C1/C(=O)C=C[C@@H]1C/C=C\\CCCC(=O)O [15D-PGJ2] (max concentration tested 800 nM)" meas_value=0
molecule="NC(=O)c1ccc(I)c([N+](=O)[O-])c1 [Iniparib] (max concentration tested 10000 nM)" meas_value=0
molecule="CCc1cncnc1N1CCN(Cc2nc3ccc(C(F)(F)F)cc3[nH]2)CC1 (max concentration tested 10000 nM)" meas_value=1.12
molecule="Nc1nc(Cl)nc2c1ncn2[C@H]1C[C@H](O)[C@@H](CO)O1 [Cladribine] (max concentration tested 1000 nM)" meas_value=3.75
